Target of assay: KPNA4 ARM minor (Homo sapiens, UniProt O00629)
Construct: 60-487; GST (cleaved yes); made in house; host or cells: Escherichia coli BL21-Gold(DE3)
Sequence (O00629 60-487): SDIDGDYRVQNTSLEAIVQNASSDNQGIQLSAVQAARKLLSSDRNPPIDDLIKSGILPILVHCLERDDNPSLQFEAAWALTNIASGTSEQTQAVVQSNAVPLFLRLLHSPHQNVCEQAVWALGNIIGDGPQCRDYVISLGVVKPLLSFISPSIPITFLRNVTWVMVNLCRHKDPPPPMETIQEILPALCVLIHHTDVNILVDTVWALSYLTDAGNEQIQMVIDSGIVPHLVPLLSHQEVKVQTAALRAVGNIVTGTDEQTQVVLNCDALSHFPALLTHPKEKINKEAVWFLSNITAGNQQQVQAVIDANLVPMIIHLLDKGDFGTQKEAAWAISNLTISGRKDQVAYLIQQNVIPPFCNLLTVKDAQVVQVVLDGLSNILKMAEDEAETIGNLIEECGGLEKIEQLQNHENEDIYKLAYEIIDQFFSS
Procedure text: FP displacement assay, KPNA4 ARM minor pocket
Type: binding
Measurement parameters: minor pocket probe FITC-NCOR2 5 nM, 50 mM sodium phosphate pH 7.4, room temperature, at least three technical replicates, read-out: KD values ± SEM
Non-standard residues stand in square brackets, D forms with d. Residues, ends and D or L forms follow the SMILES beside them. pT = C[C@@H](OP(=O)(O)O)[C@H](N)C(=O)O
Outcome measure: Kd (µM)

# Molecule, Target of assay, Endpoint value
measured = [
    ("CC(=O)N[C@@H](CC(N)=O)C(=O)N[C@@H](Cc1ccc(O)cc1)C(=O)N[C@@H](C)C(=O)N1CCC[C@H]1C(=O)N1CCC[C@H]1C(=O)N[C@H](C(=O)N[C@@H](CCCCN)C(=O)N[C@@H](CCCNC(=N)N)C(=O)N[C@@H](CCC(=O)O)C(=O)N[C@@H](CCCNC(=N)N)C(=O)N[C@H](C(=O)N[C@@H](CO)C(=O)N[C@@H](CO)C(=O)N[C@@H](CC(C)C)C(=O)N[C@H](C(=O)N[C@@H](CCC(N)=O)C(N)=O)[C@@H](C)O)[C@@H](C)O)C(C)C [RANBP3_114–129 wt] (Ac-NYAPPVKRERTSSLTQ-NH2)", "KPNA4 ARM minor (Homo sapiens, UniProt O00629)", 68),
    ("CC(=O)N[C@@H](CC(=O)O)C(=O)N[C@H](C(=O)N[C@@H](CCC(=O)O)C(=O)N[C@@H](Cc1c[nH]cn1)C(=O)NCC(=O)NCC(=O)N[C@@H](CCCCN)C(=O)N[C@@H](CCCNC(=N)N)C(=O)N[C@@H](CO)C(=O)N[C@@H](CCCNC(=N)N)C(=O)N[C@@H](CC(C)C)C(=O)N[C@H](C(=O)N1CCC[C@H]1C(=O)N[C@H](C(=O)N[C@@H](CO)C(=O)N[C@@H](Cc1ccc(O)cc1)C(N)=O)C(C)C)[C@@H](C)O)C(C)C [SQSTM1_258–272 wt] (Ac-DVEHGGKRSRLTPVSY-NH2)", "KPNA4 ARM minor (Homo sapiens, UniProt O00629)", 14),
    ("CC(=O)N[C@@H](CC(N)=O)C(=O)N[C@@H](Cc1ccc(O)cc1)C(=O)N[C@@H](C)C(=O)N1CCC[C@H]1C(=O)N1CCC[C@H]1C(=O)N[C@H](C(=O)N[C@@H](CCCCN)C(=O)N[C@@H](CCCNC(=N)N)C(=O)N[C@@H](CCC(=O)O)C(=O)N[C@@H](CCCNC(=N)N)C(=O)N[C@H](C(=O)N[C@@H](CO)C(=O)N[C@@H](CO)C(=O)N[C@@H](CC(C)C)C(=O)N[C@H](C(=O)N[C@@H](CCC(N)=O)C(N)=O)[C@@H](C)O)[C@@H](C)OP(=O)(O)O)C(C)C [RANBP3_114–129 pS (p + 5)] (Ac-NYAPPVKRER[pT]SSLTQ-NH2)", "KPNA4 ARM minor (Homo sapiens, UniProt O00629)", 167),
    ("CC(=O)NCC(=O)N[C@@H](C)C(=O)N[C@@H](CO)C(=O)N1CCC[C@H]1C(=O)N[C@@H](C)C(=O)N[C@@H](CC(C)C)C(=O)N[C@@H](CCCCN)C(=O)N[C@@H](CCCNC(=N)N)C(=O)N[C@@H](CO)C(=O)N[C@@H](Cc1c[nH]cn1)C(=O)N[C@@H](CO)C(=O)N[C@@H](CC(=O)O)C(=O)N[C@@H](CO)C(=O)N[C@@H](Cc1ccc(O)cc1)C(N)=O [CDC25A114–125 wt] (Ac-GASPALKRSHSDSY-NH2)", "KPNA4 ARM minor (Homo sapiens, UniProt O00629)", 0.2),
]
